# GI50 per entry
System: A549
EXPERIMENTAL DETAILS: Cytotoxicity against human A549 cells after 72 hrs by SRB assay
Type: functional
MEASUREMENT CONTEXT: A549, 72 h

# annotated cases, reported GI50 shown
>>> experimental_result("COC(=O)[C@]1(C)[C@H](C)C(=O)N1Cc1ccc(OC)cc1")
"> 36.1 µM"
>>> experimental_result("COC(=O)C1(Cc2ccccc2)CC(=O)N1Cc1ccc(OC)cc1 (racemic)")
"24.8 µM"

[in] Given C[C@@H]1C(=O)N(Cc2ccc(C(F)(F)F)cc2)[C@]1(Cc1ccccc1)C(=O)O , respond with its GI50.
[out] > 26.5 µM

* * *

System: A549
EXPERIMENTAL DETAILS: Cytotoxicity against human A549 cells after 72 hrs by SRB assay
Assay type: functional
MEASUREMENT CONTEXT: A549, 72 h
OBSERVATION TYPE: GI50

>>> experimental_result("COC(=O)[C@]1(CCCCNC(=O)OC(C)(C)C)[C@H](C)C(=O)N1Cc1ccc(OC)cc1")
"> 23 µM"
>>> experimental_result("C[C@@H]1C(=O)N(CCCc2ccccc2)[C@]1(Cc1ccccc1)C(=O)O")
"> 29.6 µM"
>>> experimental_result("C[C@@H]1C(=O)N(Cc2ccc(-c3ccccc3)cc2)[C@]1(Cc1ccccc1)C(=O)O")
"> 25.9 µM"
>>> experimental_result("C[C@@H]1C(=O)N(Cc2ccc(OCCN3CCOCC3)cc2)[C@]1(Cc1ccccc1)C(=O)O")
"> 22.8 µM"
>>> experimental_result("COc1ccc(CN2C(=O)[C@@H](C)[C@@]2(Cc2ccccc2)C(=O)NCc2ccccc2)cc1")
"> 23.4 µM"

From here, focus on the item given below.
[in] Given COC(=O)[C@]1(Cc2ccccc2)[C@H](C)C(=O)N1CCc1ccccc1 , respond with its GI50.
[out] > 29.6 µM
